Test system: HepG2
Experiment: EC50 in HepG2
Type: cell-based
Conditions: ND630 versus RJ compounds; read-out: EC50 (μM) ND630/RJ-cmps(%)
Form field: EC50 (one value per entry).

// worked examples, EC50 included
COc1ccccc1C(Cn1c(=O)n(C2(C(N)=O)CCCC2)c(=O)c2c(C)c(-c3ncco3)sc21)OC1CCOCC1 (stereo not shown) : > 1 µM
COc1ccccc1[C@H](Cn1c(=O)n(C2(C(=O)O)CC2)c(=O)c2c(C)c(Cl)sc21)OC1CCOCC1 : > 1 µM
COc1ccccc1[C@H](Cn1c(=O)n(C2(C(=O)O)CC2)c(=O)c2c(C)c(-n3nccn3)sc21)OC1CCOCC1 : 0.1 to 1 µM

Now look at this entry.
EC50 measured on COc1ccccc1[C@H](Cn1c(=O)n(C2(C(=O)O)CCC2)c(=O)c2c(C)c(CN)sc21)OC1CCOCC1 = 0.1 to 1 µM
